tested.target: EGFR (L858R/C797S) (Homo sapiens, UniProt P00533, C797S/L858R)
Sequence (P00533 25-1210 C797S/L858R): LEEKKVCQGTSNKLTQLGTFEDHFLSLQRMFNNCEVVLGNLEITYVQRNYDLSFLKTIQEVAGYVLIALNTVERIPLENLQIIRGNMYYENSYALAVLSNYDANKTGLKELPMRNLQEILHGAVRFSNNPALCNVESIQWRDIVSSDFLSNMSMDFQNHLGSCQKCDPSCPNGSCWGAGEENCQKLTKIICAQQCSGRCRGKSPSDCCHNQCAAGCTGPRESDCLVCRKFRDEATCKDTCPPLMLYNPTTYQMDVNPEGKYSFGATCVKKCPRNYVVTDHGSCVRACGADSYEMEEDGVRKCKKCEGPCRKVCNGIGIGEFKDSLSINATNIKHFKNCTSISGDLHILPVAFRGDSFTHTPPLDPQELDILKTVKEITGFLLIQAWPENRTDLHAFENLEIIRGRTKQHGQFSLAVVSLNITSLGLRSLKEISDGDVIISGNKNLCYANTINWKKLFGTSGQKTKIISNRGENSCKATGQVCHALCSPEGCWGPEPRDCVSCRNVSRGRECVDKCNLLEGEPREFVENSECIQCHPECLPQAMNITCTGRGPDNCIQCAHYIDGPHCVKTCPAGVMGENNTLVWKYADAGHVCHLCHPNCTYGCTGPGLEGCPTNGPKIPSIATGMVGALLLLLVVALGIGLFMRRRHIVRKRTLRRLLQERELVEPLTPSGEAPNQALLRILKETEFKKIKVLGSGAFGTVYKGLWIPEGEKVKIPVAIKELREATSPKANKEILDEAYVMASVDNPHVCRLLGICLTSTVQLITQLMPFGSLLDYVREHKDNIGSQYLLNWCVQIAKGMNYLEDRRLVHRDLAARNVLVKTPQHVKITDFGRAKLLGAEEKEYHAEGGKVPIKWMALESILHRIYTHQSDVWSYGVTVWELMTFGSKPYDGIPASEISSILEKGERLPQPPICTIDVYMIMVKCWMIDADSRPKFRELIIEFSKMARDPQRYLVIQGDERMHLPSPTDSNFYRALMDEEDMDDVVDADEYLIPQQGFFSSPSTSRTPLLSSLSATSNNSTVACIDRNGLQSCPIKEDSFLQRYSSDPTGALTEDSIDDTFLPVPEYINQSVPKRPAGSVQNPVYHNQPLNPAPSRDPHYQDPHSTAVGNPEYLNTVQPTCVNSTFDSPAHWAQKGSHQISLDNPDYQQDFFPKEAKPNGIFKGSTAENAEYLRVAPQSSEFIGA
experiment.description: MSA (Mobility Shift Assay) kinase activity, EGFR-L858R-C797S
Format: biochemical
Protocol: The MSA (Mobility Shift Assay) method was used to detect the effects of small molecule inhibitors on the kinase activity of EGFR wild type and its mutants (EGFR^wt, EGFR-L858R, EGFR-L858R-T790M-C797S, EGFR-L858R-C797S). 10 μL of kinase solution at 2.5 times the final concentration was added to the compound wells and positive control Max wells; 10 μL of 1x kinase buffer was added to the negative control Min wells. […] The conversion rate was read using Caliper EZ Reader. […]
readout.type: IC50 (nM)

CC(C)c1ccc(N2CC(CS(C)(=O)=O)C2)c2cnc(Nc3ccnc(-c4cnn(CC(F)(F)F)c4)n3)cc12 : 5.1
CC(C)c1ccc(N2CC(NS(C)(=O)=O)C2)c2cnc(Nc3ccnc(N4CCC(O)CC4)c3)nc12 : 89.8

a. CC(C)c1ccc(N2CC(CS(C)(=O)=O)C2)c2cnc(Nc3ccnc(-c4cnn(S(=O)(=O)C5CCCCC5)c4)n3)cc12
b. CC(C)c1ccc(N2C[C@H](CS(C)(=O)=O)[C@H]2C)c2cnc(Nc3ccnc(-c4cnn(S(=O)(=O)C5CC5)c4)n3)cc12
Request: Could you tell me which of these two has the smaller IC50 figure? First: a Second: b Kindly give the label for the entry you pick.
Result: b
(b: 0.6 nM, a: 12 nM)

P. CC(C)c1ccc(N2CC(CS(C)(=O)=O)C2)c2cnc(Nc3ccnc(-c4cnn(S(C)(=O)=O)c4)n3)cc12
Q. CC(C)c1ccc(N2CC(NS(C)(=O)=O)C2)c2cnc(Nc3ccnc(N4CCC(O)C(C)(F)C4)n3)cc12 (centres unmarked) [Compound P46]
R. CC(C)c1ccc(N2CC(NS(C)(=O)=O)C2)c2cnc(Nc3ccnc(N4CCC(O)C(F)C4)n3)cc12 (centres unmarked)
S. CC(C)c1ccc(N2CC(CS(C)(=O)=O)C2)c2cnc(Nc3ccnc(-c4cnn(S(=O)(=O)C5(C)CC5)c4)n3)cc12
Request: Please rank these compounds by IC50 in descending order. To answer, write out the labels according to the requested order.
Result: Q, S, R, P
(Q: 9.3 nM, S: 5 nM, R: 2.3 nM, P: 0.77 nM)

A. CC(C)n1c(=O)cc(N2CC(CS(C)(=O)=O)C2)c2cnc(Nc3ccnc(-c4cnn(S(=O)(=O)C5CC5)c4)n3)cc21
B. CC(C)c1ccc(N2CC(CS(C)(=O)=O)C2)c2cnc(Nc3ccnc(-c4cnn(S(=O)(=O)N(C)C)c4)n3)cc12
Request: Field: lower IC50 | Options: A / B Please respond with the label that marks your chosen entry.
Result: A
(A: 1.9 nM, B: 4.6 nM)

1. CC(C)c1ccc(N2CC(CS(C)(=O)=O)C2)c2cnc(Nc3ccnc(-c4cnn(S(=O)(=O)C5CC5)c4)n3)cc12
2. CC(C)c1ccc(N2CC(CS(C)(=O)=O)C2)c2cnc(Nc3ccnc(-c4cnn(S(=O)(=O)C5CCOCC5)c4)n3)cc12
Request: Return label of the item with the larger IC50. Candidates: 1 , 2 . Returns: label corresponding to the selected item.
Result: 2

a. CC(C)n1c(=O)cc(N2CC(CS(C)(=O)=O)C2)c2cnc(Nc3ccnc(N4CCC(O)CC4)n3)cc21
b. COC1CCN(c2nccc(Nc3cc4c(C(C)C)ccc(N5CC(NS(C)(=O)=O)C5)c4cn3)n2)CC1F (centres unmarked)
c. CC(C)c1ccc(N2CC(NS(C)(=O)=O)C2)c2cnc(Nc3ccnc(N4CCC(O)C(F)(F)C4)n3)cc12 (centres unmarked)
Request: Sort low-to-high on IC50, please. List each label, following the requested order.
Result: b, c, a
